B1: library; numbered along this chain (parent)
chain: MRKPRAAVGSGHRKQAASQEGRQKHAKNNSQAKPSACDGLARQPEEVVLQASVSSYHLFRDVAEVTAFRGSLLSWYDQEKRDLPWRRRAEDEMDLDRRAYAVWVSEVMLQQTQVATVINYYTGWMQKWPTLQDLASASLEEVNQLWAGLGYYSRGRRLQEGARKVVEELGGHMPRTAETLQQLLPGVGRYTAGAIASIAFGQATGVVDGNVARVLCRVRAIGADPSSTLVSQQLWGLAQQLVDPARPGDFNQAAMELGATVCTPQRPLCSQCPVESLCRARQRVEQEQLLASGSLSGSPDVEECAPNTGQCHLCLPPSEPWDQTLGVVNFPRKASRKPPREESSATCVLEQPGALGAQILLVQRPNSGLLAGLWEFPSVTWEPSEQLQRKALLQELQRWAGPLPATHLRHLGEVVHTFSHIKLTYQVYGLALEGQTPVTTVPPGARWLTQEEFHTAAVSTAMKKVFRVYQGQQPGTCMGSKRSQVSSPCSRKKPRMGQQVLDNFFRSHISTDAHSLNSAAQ

Variants of: B1
Assay: 8OG:A repair function score (normalized; synonymous = 0, nonsense = -1) (normalized log-likelihood score); higher = more repair activity (WT-like);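 further: cells sorted at 72 h after reporter transfection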
Settings: with 8OG:A DNA repair reporter (GFP) in HEK-293 MUTYH KO cells
Field: 8OG:A repair function score. Provide a value for each of the variants that follow.
One number for each entry.

Consider the reported 8OG:A repair function score for these variants:
[[record]]
mutation_code = "V438N"
readout_number = 0.103

[[record]]
mutation_code = "V362R"
readout_number = -0.236


Provide each entry's 8OG:A repair function score from the list below.
1. L268F
2. Y100R
3. I421N
4. V214Q

Response:
1. 0.00448
2. -1.63
3. -0.83
4. -0.911

Provide each entry's 8OG:A repair function score from the list below.
1. H514F
2. P174A
3. G412F
4. W103A
5. V242G
6. A456G
7. Q388V

Response:
-0.0319
-0.706
-0.473
-0.808
-0.916
-0.246
0.063

Query: GET /values?readout=8OG:A repair function score&item= E167F
Response: 0.0154

This collection of values is drawn from the supplement of paper PMC11908140.
